# activity change, negative = inhibition per entry
- ASSAY PROTOCOL: CMV-Luciferase Counterscreen for Inhibitors of ATXN expression; also: % is scaled to controls: 0 for no effect and ±100 for the full control effect; nearly all actives have a fitted effect of over 55% in size
- MEASUREMENT CONTEXT: HEK-293 CMV-luciferase reporter, luminescence, 24 h; series mostly up to 57.5 µM
About 670 (32%) of roughly 2,100 compounds were called active. About 50% were inconclusive and are not listed. Some of the results follow.
QUANTITY NAME: activity change, negative = inhibition

MOLECULE: O=C(C1CC(=O)N(c2ccc3c(c2)OCCO3)C1)N1CCN(c2ccccc2)CC1 (stereo unspecified)
QUANTITY NAME: activity change, negative = inhibition
VALUE: -8.65% [at 11.4 µM] (inactive)

MOLECULE: Cc1ccc(-c2nc3ccc(Cl)cn3c2CC(C)(C)C)cc1
QUANTITY NAME: activity change, negative = inhibition
VALUE: -2.84% [at 11.4 µM] (inactive)

MOLECULE: COc1ccc(F)cc1-c1cc(NC=O)c2ncc(-c3cccc(C(=O)N(C)C)c3)n2c1
QUANTITY NAME: activity change, negative = inhibition
VALUE: -8.79% [at 11.4 µM] (inactive)

MOLECULE: CCOC(=O)/C=C/C(=O)Nc1ccc(Oc2ccccc2)cc1
QUANTITY NAME: activity change, negative = inhibition
VALUE: -6.32% [at 11.4 µM] (inactive)

MOLECULE: CC(=O)c1cccc(-c2cnc3c(NC=O)cc(-c4ccccc4F)cn23)c1
QUANTITY NAME: activity change, negative = inhibition
VALUE: -18.2% [at 11.4 µM] (inactive)

MOLECULE: COc1ccc(NS(=O)(=O)c2ccc(C(=O)Nc3c(C)n(C)n(-c4ccccc4)c3=O)cc2)cc1
QUANTITY NAME: activity change, negative = inhibition
VALUE: 0.165% [at 11.4 µM] (inactive)

MOLECULE: COc1ccc(C2CC(c3cccc(C(F)(F)F)c3)=NN2c2ccc(S(N)(=O)=O)cc2)cc1 (stereo unspecified)
QUANTITY NAME: activity change, negative = inhibition
VALUE: -28.1% [at 11.4 µM] (inactive)

MOLECULE: CC(C)c1cccc(C(C)C)c1Nc1cn[nH]c1
QUANTITY NAME: activity change, negative = inhibition
VALUE: -9.58% [at 11.4 µM] (inactive)

MOLECULE: COCC(=O)OC/C(O)=C(\C#N)c1nc2ccccc2[nH]1
QUANTITY NAME: activity change, negative = inhibition
VALUE: -13.1% [at 11.4 µM] (inactive)

MOLECULE: Nc1ccc2c(c1)OC1(CCCC1)O2
QUANTITY NAME: activity change, negative = inhibition
VALUE: -27.3% [at 11.4 µM] (inactive)

MOLECULE: Cc1cc(O)c(C(C)C)cc1N=Cc1ccc(N(C)C)cc1
QUANTITY NAME: activity change, negative = inhibition
VALUE: 0.592% [at 11.4 µM] (inactive)

MOLECULE: O=C(NCc1ccccc1C(F)(F)F)c1cccc2c1C(=O)c1ccc(N3CCC(N4CCCCC4)CC3)cc1S2(=O)=O
QUANTITY NAME: activity change, negative = inhibition
VALUE: 34.1% [at 11.4 µM] (inactive)

MOLECULE: COC(=O)c1ccc(Oc2nc(NC(C)C)nc(N(C)C)n2)cc1
QUANTITY NAME: activity change, negative = inhibition
VALUE: -22.6% [at 11.4 µM] (inactive)

MOLECULE: NC(=O)c1c(NC(=O)c2ccc(S(=O)(=O)N3CCOCC3)cc2)sc2c1CCCCC2
QUANTITY NAME: activity change, negative = inhibition
VALUE: -13.6% [at 11.4 µM] (inactive)

MOLECULE: CCCC(=O)Nc1c(C(=O)OCC)[nH]c2ccccc12
QUANTITY NAME: activity change, negative = inhibition
VALUE: -4.94% [at 11.4 µM] (inactive)

MOLECULE: COc1cc(Nc2ncc3c(n2)CCN(C(=O)Nc2ccc(C(C)C)cc2)C3)cc(OC)c1OC
QUANTITY NAME: activity change, negative = inhibition
VALUE: -3.4% [at 11.4 µM] (inactive)

MOLECULE: O=C(Nc1cccnc1)C1Cc2c(-c3ccc4c(c3)OCO4)ccnc2O1 (stereo unspecified)
QUANTITY NAME: activity change, negative = inhibition
VALUE: -23.6% [at 11.4 µM] (inactive)

MOLECULE: COc1ccc(CC(N)c2csc(NC(=O)c3cc(C(C)(C)C)nn3Cc3ccccc3)n2)cc1 (stereo unspecified)
QUANTITY NAME: activity change, negative = inhibition
VALUE: -13.8% [at 11.4 µM] (inactive)

MOLECULE: COC(=O)[C@H]1C[C@H](OC(=O)NC2CC2)[C@@]2(O)CN(S(=O)(=O)c3ccc(C)cc3)CC2[C@H]1C(=O)OC (stereo partly specified)
QUANTITY NAME: activity change, negative = inhibition
VALUE: 4.52% [at 11.4 µM] (inactive)

MOLECULE: Cc1cc(=O)oc2c1c(C)nn2-c1cccc(Cl)c1
QUANTITY NAME: activity change, negative = inhibition
VALUE: -12.8% [at 11.4 µM] (inactive)

MOLECULE: Cc1ccnc(NC(=O)CCCc2c[nH]c3ccccc23)c1
QUANTITY NAME: activity change, negative = inhibition
VALUE: 484% [at 11.4 µM] (inactive)

Values compiled from PubChem BioAssay AID1745847.
